# System: SK-OV-3 ovarian
# Experiment summary: NCI-60 one-dose screen, 48 h (100 = growth as untreated, 0 = no growth, -100 = all killed)
# Measurement setup: 10 µM unless noted
Compounds without any hit were thinned out: in the full panel of roughly 83,000, 20% have a hit.

{"columns": ["Compound", "growth (%)"],
 "data": [
  ["CCOC(=O)N1CCN(CCCCl)CC1", 126],
  ["Cc1ccc2[nH]c(=O)cc(-n3nncc3COc3ccc(C=O)cc3)c2c1", 107],
  ["Cc1ccc(S(=O)(=O)Nc2ccc(Cl)cc2)cc1", 112],
  ["CC(N)C(=O)NNc1n[nH]c(=S)n1N (centres undefined)", 109],
  ["COc1ccc(/C=N/C2=C(C#N)C(c3ccccc3[N+](=O)[O-])c3ccc4ccccc4c3O2)cc1 (centres undefined)", 101],
  ["O=S(=O)(O)c1cc(O)c2c(N=Nc3ccc(Nc4ccccc4)c4c(S(=O)(=O)O)cccc34)cc(S(=O)(=O)O)cc2c1", 104],
  ["CCOC(=O)C1=C(C)NC(C)=C(C(=O)OCC)C1c1cc(Br)c(O)c(OC)c1", 16.9],
  ["O=C(CN1CCOCC1)Nc1ccc2ncnc(Nc3ccc(Oc4cccc(F)c4)c(Cl)c3)c2c1", 13.9],
  ["N#Cc1cc(-c2nc3ccccc3s2)c(=O)n(NS(=O)(=O)c2ccc(Cl)cc2)c1N", 83.7],
  ["CC(O)/C=C/C=C/C(O)CC/C=C/C(=O)NCC(C)(C)O (centres undefined)", 111],
  ["COc1ccc(/C=C/c2n[nH]c3ccc(N4CCOC4=O)cc23)cc1", 25.2],
  ["FC(F)(F)c1cccc(Oc2ccc(Nc3ncnc4ccc(OCCCN5CCOCC5)cc34)cc2Cl)c1", 22.1],
  ["COc1ccc(C(=O)c2cc3c(N)c(C(=O)Nc4ccc(Br)cc4)sc3nc2C)cc1", 62.1],
  ["COc1ccc(C2=NN(C(C)=O)C(c3cn(Cc4ccc(Cl)cc4)c4ccccc34)C2)cc1 (centres undefined)", 90.1],
  ["C=C(C)[C@@H]1CC[C@]2(C(=O)NCC(=O)OC)CC[C@]3(C)[C@H](CC[C@@H]4[C@@]5(C)Cc6c([nH]c7ccccc67)C(C)(C)[C@@H]5CC[C@]43C)[C@@H]12", 84.5],
  ["CNC(=O)NCC1OC(n2cnc3c(NC(=O)Nc4ccccc4)ncnc32)C(O[Si](C)(C)C(C)(C)C)C1O[Si](C)(C)C(C)(C)C (centres undefined)", 77.5],
  ["COc1ccc(CC(C)=C(c2ccc(OCCN(C)C)cc2)c2ccc(OCCN(C)C)cc2)cc1", 85.7],
  ["CC(=O)c1cc2c(N)c(C(=O)Nc3cncc4ccccc34)sc2nc1C", 93.6],
  ["O=C(O)C(/C=C/c1ccco1)=N\\Nc1nc(-c2ccc(Cl)cc2)cs1", 70.9]
]}
